# Test: Terminal phase volume of distribution in Sprague-Dawley rat
# Assay type: ADME, organism-based
# Test context: in vivo, read-out: Vbeta
Would you kindly list Vd for each of these molecules?
Please reply with the bare figure in L/kg and do not write the unit itself.

(Q) Assign Vd to the following record: NC(=O)c1cccc2[nH]c(-c3ccc([C@@H]4CCCCN4)cc3F)nc12
(A) 14

(Q) Please report the measured Vd for NC(=O)c1cccc2[nH]c(-c3ccc([C@@H]4CCCN4)cc3F)nc12
(A) 4.1

====

For each entry below, report its AUC value.
# Test: AUC in Beagle dog at […], po
# Assay type: ADME, organism-based, Canis lupus familiaris
# Set-up: dose 2.5 mg/kg, route oral
# Test context: plasma
Mention the unit after the number when you answer.

(Q) Supply AUC value. Item: NC(=O)c1cccc2[nH]c(-c3ccc([C@@H]4CCCCN4)cc3F)nc12
(A) 300 ng·h/mL

(Q) Quick one: give measured AUC for NC(=O)c1cccc2[nH]c(-c3ccc([C@@H]4CCCN4)cc3F)nc12
(A) 1100 ng·h/mL
